Tested System: Protein RecA (Mycobacterium tuberculosis)
Method Notes: Fluorescence Cell-Free Homogeneous Dose Retest to Identify Inhibitors of RecA-Intein Splicing Activity. [Related pubchem assays (depositor defined):AID2097, AID2223, AID489010, AID492950]
Type: functional
The source made the active and inactive calls.
Hi there, I'd appreciate the recorded EC50 for every entry that follows.

INPUT: // query EC50 value for entry CC(C)CNC(=O)c1c(N)n(Cc2ccc3c(c2)OCO3)c2nc3ccccc3nc12
OUTPUT: > 380 µM (inconclusive)

INPUT: // query EC50 value for entry O=C1C=C(Nc2ccccc2)c2ccccc2C1=O
OUTPUT: 0.723 µM (active)

INPUT: // query EC50 value for entry COc1cc(C=C(c2nc3ccccc3s2)c2nc3ccccc3s2)ccc1O
OUTPUT: 5.08 µM (active)

INPUT: // query EC50 value for entry COc1ccc2ccc3c(c2c1)N=CC1(O3)N(C)c2ccccc2C1(C)C (configuration not stated)
OUTPUT: 36.2 µM (active)

INPUT: // query EC50 value for entry Cc1ccc(CS(=O)(=O)c2ncc(Cl)c(C(=O)Nc3nnc(C(C)C)s3)n2)cc1
OUTPUT: 0.717 µM (active)

INPUT: // query EC50 value for entry O=[N+]([O-])c1ccc(N2CCCC(C(F)(F)F)C2)c2ccncc12 (configuration not stated)
OUTPUT: 10.8 µM (active)

INPUT: // query EC50 value for entry CC1OC(Nc2cccc3ccccc23)C(O)C(O)C1O (configuration not stated)
OUTPUT: 75.1 µM (active)

INPUT: // query EC50 value for entry O=C(Nc1ccccc1)c1nnsc1[S+]([O-])c1ccc(Cl)cc1 (configuration not stated)
OUTPUT: 5.92 µM (active)

INPUT: // query EC50 value for entry CC(=O)N1C(=O)C2(C(C#N)=C(N)Oc3c2c(C)nn3-c2ccccc2)c2ccccc21 (configuration not stated)
OUTPUT: 2.28 µM (active)

INPUT: // query EC50 value for entry CCCc1nn(-c2ccccc2)c2c1C(c1cccs1)C(C#N)=C(N)O2 (configuration not stated)
OUTPUT: 3.58 µM (active)

INPUT: // query EC50 value for entry CC1=C(C)/C(=N/OC(=O)c2cccc([N+](=O)[O-])c2)C=CC1=O
OUTPUT: 0.418 µM (active)

INPUT: // query EC50 value for entry O=C1CC(NC(=O)C(F)(F)F)=NN1c1ccccc1
OUTPUT: 5.51 µM (active)

====

Hi there, I'd appreciate the recorded EC50 for every entry that follows.
Tested System: Peroxisome proliferator-activated receptor gamma/Nuclear receptor coactivator 1 (Homo sapiens);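 note: agonist potency as compounds enhance coactivator SRC-1 recruitment to PPARgamma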
Sequence (P37231 whole entry): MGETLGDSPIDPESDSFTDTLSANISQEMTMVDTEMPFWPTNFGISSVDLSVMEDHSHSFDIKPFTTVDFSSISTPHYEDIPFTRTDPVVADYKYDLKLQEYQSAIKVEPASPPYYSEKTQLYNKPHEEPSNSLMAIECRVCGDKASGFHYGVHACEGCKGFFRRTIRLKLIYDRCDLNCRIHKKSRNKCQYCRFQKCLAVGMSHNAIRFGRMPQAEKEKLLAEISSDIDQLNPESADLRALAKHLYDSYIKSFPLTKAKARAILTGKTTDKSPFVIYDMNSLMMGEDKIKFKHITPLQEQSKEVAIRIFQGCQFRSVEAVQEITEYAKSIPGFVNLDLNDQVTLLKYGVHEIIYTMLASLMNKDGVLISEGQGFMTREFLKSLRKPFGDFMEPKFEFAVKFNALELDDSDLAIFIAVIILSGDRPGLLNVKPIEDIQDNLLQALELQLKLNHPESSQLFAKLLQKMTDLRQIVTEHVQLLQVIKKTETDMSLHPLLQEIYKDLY
Sequence (Q15788 whole entry, further chain): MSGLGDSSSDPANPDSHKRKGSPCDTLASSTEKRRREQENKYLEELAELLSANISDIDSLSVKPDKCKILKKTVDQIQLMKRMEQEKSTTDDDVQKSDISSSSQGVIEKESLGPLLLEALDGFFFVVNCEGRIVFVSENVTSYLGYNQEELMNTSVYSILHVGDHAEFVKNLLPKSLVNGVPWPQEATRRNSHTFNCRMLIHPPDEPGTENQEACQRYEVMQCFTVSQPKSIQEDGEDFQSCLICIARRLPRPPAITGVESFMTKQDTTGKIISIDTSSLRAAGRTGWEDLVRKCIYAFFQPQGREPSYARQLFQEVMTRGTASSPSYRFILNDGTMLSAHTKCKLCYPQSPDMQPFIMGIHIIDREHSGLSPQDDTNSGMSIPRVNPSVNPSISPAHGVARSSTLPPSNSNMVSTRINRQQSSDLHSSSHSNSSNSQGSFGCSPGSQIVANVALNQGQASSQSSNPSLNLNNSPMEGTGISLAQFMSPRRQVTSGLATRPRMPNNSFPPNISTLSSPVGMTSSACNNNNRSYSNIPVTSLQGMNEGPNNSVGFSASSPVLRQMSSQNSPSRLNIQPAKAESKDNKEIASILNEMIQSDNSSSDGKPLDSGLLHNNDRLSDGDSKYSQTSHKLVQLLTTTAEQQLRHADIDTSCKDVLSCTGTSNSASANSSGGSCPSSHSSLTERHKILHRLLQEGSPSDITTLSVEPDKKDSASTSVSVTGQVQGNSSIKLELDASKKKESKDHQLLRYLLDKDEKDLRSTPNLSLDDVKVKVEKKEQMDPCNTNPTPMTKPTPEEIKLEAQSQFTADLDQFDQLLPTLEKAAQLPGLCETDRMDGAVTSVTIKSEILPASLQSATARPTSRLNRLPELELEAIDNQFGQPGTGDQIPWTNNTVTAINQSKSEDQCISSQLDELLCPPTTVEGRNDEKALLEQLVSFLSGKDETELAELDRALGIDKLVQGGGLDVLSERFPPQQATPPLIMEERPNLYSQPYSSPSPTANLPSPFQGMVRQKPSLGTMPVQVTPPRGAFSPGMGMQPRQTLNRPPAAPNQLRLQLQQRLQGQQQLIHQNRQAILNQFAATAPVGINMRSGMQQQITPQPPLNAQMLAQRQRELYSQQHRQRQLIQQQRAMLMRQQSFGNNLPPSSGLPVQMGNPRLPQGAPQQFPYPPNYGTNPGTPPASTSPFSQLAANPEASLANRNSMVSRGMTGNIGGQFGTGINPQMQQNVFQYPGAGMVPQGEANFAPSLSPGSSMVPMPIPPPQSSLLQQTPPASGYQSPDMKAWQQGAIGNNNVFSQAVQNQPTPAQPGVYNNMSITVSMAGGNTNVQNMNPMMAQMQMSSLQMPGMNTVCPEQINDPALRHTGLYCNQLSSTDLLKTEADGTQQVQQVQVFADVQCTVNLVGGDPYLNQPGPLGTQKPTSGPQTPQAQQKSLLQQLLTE
Format: functional

INPUT: // query EC50 value for entry N#Cc1cc2c(nc1SCc1ccccc1)CCC2
OUTPUT: 41 µM (not active)

INPUT: // query EC50 value for entry O=C(CSc1cccc2cccnc12)N/N=C/c1cccnc1
OUTPUT: > 79.4 µM (not active)

INPUT: // query EC50 value for entry CCOC(=O)C1=NN(c2cccc(Cl)c2)C2=NC(C)=C(C(=O)OC)C(c3cccs3)N12 (centres undefined)
OUTPUT: > 79.4 µM (not active)

INPUT: // query EC50 value for entry COc1cc(C2CC(=O)N3CN(Cc4ccccc4)CSC3=C2C#N)ccc1OCc1ccccc1 (centres undefined)
OUTPUT: > 79.4 µM (not active)

The measured values listed here are drawn from ChEMBL document CHEMBL1201862.
